- Procedure Details: In vivo pharmacokinetic study
- Set-up: species or system Sprague–Dawley (SD) rats
- Measurement Conditions: male, Sprague-Dawley, serum; rat; Intravenous (5 mg/kg)
Recorded Endpoint: AUC(0-inf)

>>> result("CC(C)(C)CCOc1c(-c2ccc(F)c(F)c2)oc2cc(OCC(=O)O)cc(O)c2c1=O [Compound 5]")
"3610 ng·h/mL"

###

- Procedure Details: In vivo pharmacokinetic study
- Design: species or system Sprague–Dawley (SD) rats
- Measurement Conditions: male, Sprague-Dawley, serum; rat; Oral (10 mg/kg)
Recorded Endpoint: AUC(0-inf) (ng·h/mL)

>>> numeric_value("CC(C)(C)CCOc1c(-c2ccc(F)c(F)c2)oc2cc(OCC(=O)O)cc(O)c2c1=O")
1280

Reference source for all entries: paper PMC11672637
